B1: ESRRA (parent)
chain: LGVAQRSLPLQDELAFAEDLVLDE

# Variants of: B1
# Procedure Text: protein stability index of a GFP-peptide fusion (GPS, HEK-293T) (PSI 1-6); higher = more stable;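 note: lentivirally expressed fusions sorted by FACS into six bins by GFP to DsRed ratio, PSI derived from sequencing read proportions per bin multiplied by bin number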
# Condition Notes: c terminus: a fixed tail appended
If the reported protein stability index equals or exceeds 3, assign Fulfilled. If not, assign Not fulfilled.

1) A17G : Fulfilled
2) L8T : Fulfilled
3) R6P : Fulfilled
4) A4W : Not fulfilled
5) D23T : Fulfilled
6) R6G : Not fulfilled
7) L1D : Fulfilled
8) D12Q : Not fulfilled
9) L22E : Fulfilled
10) P9E : Fulfilled
11) E13T : Fulfilled

Data provenance: the supplement of paper PMC10567573
